Target: UniProt Q96RJ0
Sequence (Q96RJ0 whole entry): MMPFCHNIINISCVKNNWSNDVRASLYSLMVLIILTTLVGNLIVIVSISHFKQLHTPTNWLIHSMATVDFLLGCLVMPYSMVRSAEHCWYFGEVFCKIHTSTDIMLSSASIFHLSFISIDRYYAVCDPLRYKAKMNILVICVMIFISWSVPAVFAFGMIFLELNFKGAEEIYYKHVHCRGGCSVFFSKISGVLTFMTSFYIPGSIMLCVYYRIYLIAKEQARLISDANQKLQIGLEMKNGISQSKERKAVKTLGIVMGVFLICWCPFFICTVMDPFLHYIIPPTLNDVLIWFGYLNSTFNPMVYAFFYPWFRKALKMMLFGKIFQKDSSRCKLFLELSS
Assay: Activation of human TAAR1 expressed in CHOK1 cells coexpressing Galpha16 assessed as calcium accumulation
measured-metric: pEC50
A value of pEC50 is the negative decimal logarithm of a concentration given in moles per litre.

Requested field: pEC50. Item: NCCOc1ccccc1
5.75
